# Tested on: Escherichia coli TOP10;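 further: peptides expressed intracellularly from a pBAD plasmid library in pooled LB shake-flask culture, induced with 0.3% L-arabinose, DNA abundance read by NGS, three biological replicates, DESeq2 with apeglm shrinkage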
# Assay Method Text: shrunken log2 fold change of peptide-encoding DNA abundance (4.5 h post-induction vs induction); higher = less antimicrobial activity (less host growth inhibition)
# Reported Conditions: time post-induction: 4.5 h; library: site-saturation at positions 5, 18, 19, 20
For each entry below, report its shrunken log2 fold change value.

**Q:** Quickly give me recorded shrunken log2 fold change for `RRIRLRPPRLPRPRPRPKIGPRP`
**A:** -0.251

**Q:** Quickly give me recorded shrunken log2 fold change for `RRIRERPPRLPRPRPRPLTWPRP`
**A:** 3.04

**Q:** Quickly give me recorded shrunken log2 fold change for `RRIRNRPPRLPRPRPRPKGMPRP`
**A:** -0.112

**Q:** Quickly give me recorded shrunken log2 fold change for `RRIRGRPPRLPRPRPRPMNIPRP`
**A:** 0.127

**Q:** Quickly give me recorded shrunken log2 fold change for `RRIRSRPPRLPRPRPRPKVGPRP`
**A:** 0.176

**Q:** Quickly give me recorded shrunken log2 fold change for `RRIRGRPPRLPRPRPRPCNKPRP`
**A:** -0.442

**Q:** Quickly give me recorded shrunken log2 fold change for `RRIRNRPPRLPRPRPRPTSGPRP`
**A:** 0.211

**Q:** Quickly give me recorded shrunken log2 fold change for `RRIRQRPPRLPRPRPRPMRMPRP`
**A:** 0.0593

**Q:** Quickly give me recorded shrunken log2 fold change for `RRIRQRPPRLPRPRPRPGTAPRP`
**A:** 0.206

**Q:** Quickly give me recorded shrunken log2 fold change for `RRIRPRPPRLPRPRPRPMPPPRP`
**A:** 0.194

**Q:** Quickly give me recorded shrunken log2 fold change for `RRIRNRPPRLPRPRPRPYGWPRP`
**A:** -0.012

**Q:** Quickly give me recorded shrunken log2 fold change for `RRIRNRPPRLPRPRPRPHLIPRP`
**A:** -0.00549

**Q:** Quickly give me recorded shrunken log2 fold change for `RRIRDRPPRLPRPRPRPNDMPRP`
**A:** -0.104

**Q:** Quickly give me recorded shrunken log2 fold change for `RRIRDRPPRLPRPRPRPAYSPRP`
**A:** 0.0295

**Q:** Quickly give me recorded shrunken log2 fold change for `RRIRTRPPRLPRPRPRPSGIPRP`
**A:** -0.0172

**Q:** Quickly give me recorded shrunken log2 fold change for `RRIRGRPPRLPRPRPRPSQGPRP`
**A:** -0.187

**Q:** Quickly give me recorded shrunken log2 fold change for `RRIRDRPPRLPRPRPRPEDTPRP`
**A:** 0.509

**Q:** Quickly give me recorded shrunken log2 fold change for `RRIRGRPPRLPRPRPRPGMDPRP`
**A:** 1.06

**Q:** Quickly give me recorded shrunken log2 fold change for `RRIRMRPPRLPRPRPRPCASPRP`
**A:** 0.0954

**Q:** Quickly give me recorded shrunken log2 fold change for `RRIRERPPRLPRPRPRPKDFPRP`
**A:** -0.00088

**Q:** Quickly give me recorded shrunken log2 fold change for `RRIRRRPPRLPRPRPRPPWGPRP`
**A:** 0.0337

**Q:** Quickly give me recorded shrunken log2 fold change for `RRIRGRPPRLPRPRPRPINLPRP`
**A:** -0.0974

**Q:** Quickly give me recorded shrunken log2 fold change for `RRIRHRPPRLPRPRPRPESRPRP`
**A:** -0.17

**Q:** Quickly give me recorded shrunken log2 fold change for `RRIRARPPRLPRPRPRPTLVPRP`
**A:** 0.562

**Q:** Quickly give me recorded shrunken log2 fold change for `RRIRTRPPRLPRPRPRPWLVPRP`
**A:** -0.0639

**Q:** Quickly give me recorded shrunken log2 fold change for `RRIRDRPPRLPRPRPRPCMPPRP`
**A:** 0.0198

**Q:** Quickly give me recorded shrunken log2 fold change for `RRIRMRPPRLPRPRPRPQWNPRP`
**A:** -0.149

**Q:** Quickly give me recorded shrunken log2 fold change for `RRIRKRPPRLPRPRPRPVVTPRP`
**A:** 0.417

**Q:** Quickly give me recorded shrunken log2 fold change for `RRIRIRPPRLPRPRPRPYYRPRP`
**A:** -0.105

**Q:** Quickly give me recorded shrunken log2 fold change for `RRIRVRPPRLPRPRPRPEYPPRP`
**A:** -0.322

**Q:** Quickly give me recorded shrunken log2 fold change for `RRIRKRPPRLPRPRPRPPVCPRP`
**A:** 0.336

**Q:** Quickly give me recorded shrunken log2 fold change for `RRIRWRPPRLPRPRPRPTGNPRP`
**A:** 0.2
